- method: NCI Yeast Anticancer Drug Screen. Data for the rad50 strain (AID 155);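 note: 0% = growth of vehicle-only cultures of the same strain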
- condition-context: S. cerevisiae rad50 strain growth inhibition; at 1.2 µM; hits give high values
Compounds without any hit were thinned out: in the full panel of roughly 79,000, 15% have a hit.
Kindly state growth inhibition for each of the entries shown.
Give bare numbers, in %.

The following compounds have reported results that may help.
## Task Item under review: `CC(C)(N=Nc1ccc(Cl)cc1)[N+](=O)[O-]` . Reported growth inhibition?
## Result 15

## Task Item under review: `Oc1ccc(N=Nc2ccc(Cl)cc2)cc1` . Reported growth inhibition?
## Result 1

## Task Item under review: `NC(=S)N1N=C2c3ccccc3CC[C@@H]2[C@@H]1c1ccccc1` . Reported growth inhibition?
## Result -13

## Task Item under review: `CC(C)OP(=O)(OC(C)C)C(=NCCO)NNc1ccc([N+](=O)[O-])cc1` . Reported growth inhibition?
## Result -5

## Task Item under review: `Nc1cc2c(cc1N)-c1ccccc1C2=O` . Reported growth inhibition?
## Result 0

## Task Item under review: `CC1CCN(CCC(=O)c2ccc([N+](=O)[O-])cc2)CC1` . Reported growth inhibition?
## Result 9

Would you mind giving growth inhibition for every compound in the list below?
1. O=C(O)c1c2ccc(Cl)cc2nc2[nH]c(=O)[nH]c(=O)c12
2. Oc1ccc(C2(c3ccc(O)cc3)CCCC2)cc1
3. CCCCCCCCCCCNC=O
4. O=C(c1ccccc1)[C@H]1Nc2ccc(Cl)cc2[C@H]2OCCC[C@@H]12
5. Oc1c2c(c(O)c3ccccc13)C1(N=N2)c2ccccc2Oc2ccccc21

## Result
1. -56
2. 3
3. -16
4. -2
5. 17

* * *

- method: NCI Yeast Anticancer Drug Screen. Data for the rad50 strain (AID 155);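 note: 0% = growth of vehicle-only cultures of the same strain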
- condition-context: S. cerevisiae rad50 strain growth inhibition; at 1.2 µM
Compounds without any hit were thinned out: in the full panel of roughly 79,000, 15% have a hit. Calls of active or inactive are those of the source. Rule as the data show it: active = growth inhibition above about 70%; inactive = the rest.
Valid outcomes are listed here; reply with one: active, inactive

## Task Please share the test call associated with `CC(=O)NC(c1nc2cc(C)c(C)cc2[nH]1)c1nc2cc(C)c(C)cc2[nH]1` .
## Result inactive

## Task Please share the test call associated with `O=c1c2ccccc2nc(-c2ccc(Cl)cc2)n1O` .
## Result active

## Task Please share the test call associated with `O=C(C#Cc1ccccc1)Nc1ccccc1` .
## Result inactive

---
## Task Please share the test call associated with `CN(C)/C(=N/C(=S)Nc1ccccc1)SCc1ccccc1` .
## Result inactive

## Task Please share the test call associated with CCN1CCC(O)(c2ccc(Oc3ccc(Cl)cc3)cc2)C(C(=O)c2ccc(Oc3ccc(Cl)cc3)cc2)C1 (stereo not drawn) .
## Result inactive

## Task Please share the test call associated with `O=C(Cc1ccccc1)NNc1nc(NNC(=O)c2ccncc2)nc(Nc2ccc([N+](=O)[O-])cc2)n1` .
## Result inactive

* * *

- method: NCI Yeast Anticancer Drug Screen. Data for the rad18 strain (AID 177)
- condition-context: S. cerevisiae rad18 mutant growth inhibition; at 33.0 µM; hits give high values
The panel holds about 79,000 compounds, 15% with a hit somewhere; the sample as a whole holds those more often.
Decide by growth inhibition: equal to or exceeding 40% means yes (1), less means no (0).

// below: answered molecules
## Task Given `CCCCOc1ccc2nc(C)cc(N=[N+]=[N-])c2c1` , state whether its growth inhibition is at least 40%.
## Result yes (1)

## Task Given CC1CCC(C2=CSC3CCCCC3N2)CC1 (centres undefined) , state whether its growth inhibition is at least 40%.
## Result no (0)

## Task Given `O=[N+]([O-])c1ccc2[nH]c3c(-c4ccccc4)nccc3c2c1` , state whether its growth inhibition is at least 40%.
## Result yes (1)

## Task Given `CNCC(C)CNC` , state whether its growth inhibition is at least 40%.
## Result no (0)

## Task Given `O=C(Nn1c(-c2ccccc2)nc2ccccc2c1=O)c1ccc(CS)cc1` , state whether its growth inhibition is at least 40%.
## Result yes (1)

## Task Given `O=C(CN(c1ccccc1)c1ccccc1)n1nnc2ccccc21` , state whether its growth inhibition is at least 40%.
## Result no (0)

---
## Task Given `O=C1C=C(Br)C(=O)c2ccccc21` , state whether its growth inhibition is at least 40%.
## Result yes (1)

## Task Given CCCCCCCCCCCCCCCCCCNc1nc(=O)n(C2CC(OP(=O)(O)OCC3OC(n4cc(F)c(=O)[nH]c4=O)CC3O)C(CO)O2)cc1F (centres undefined) , state whether its growth inhibition is at least 40%.
## Result no (0)

## Task Given C/C(=N\OCC(O)CNCCSCc1ccccc1)c1ccccc1Cl (centres undefined) , state whether its growth inhibition is at least 40%.
## Result yes (1)

## Task Given `O=C1c2ccccc2C(=O)c2sc(Nc3ccccc3Cl)nc21` , state whether its growth inhibition is at least 40%.
## Result yes (1)

* * *

- method: NCI Yeast Anticancer Drug Screen. Data for the mec2-1 strain (AID 157)
- condition-context: S. cerevisiae mec2-1 strain, at 1.2 µM, hits give high values
- Description: Growth inhibition of yeast strains with defined genetic alterations is measured as a screen for potential anti-cancer activity. Selected strains with alterations in DNA damage repair or cell cycle control were exposed to compounds and growth inhibition was measured relative to vehicle treated controls. The strain used in this assay is mec2-1
This is part of a sample that, as a whole, favours compounds with a hit. Of some 79,000 tested, about 15% had one in any assay. Residues, ends and D or L forms follow the SMILES beside them. *: point of attachment. Fmoc = O=C(OCC1c2ccccc2-c2ccccc21)*; Boc = CC(C)(C)OC(=O)*
attribute-measured: growth inhibition (%)
Give bare numbers, in %.

The following molecules have reported results that may help.
## Task Item under review: `CC(C)=CCc1c2c(c(O)c3c(=O)c(-c4ccc(O)c(O)c4)coc13)C=CC(C)(C)O2` . Reported growth inhibition?
## Result -89

## Task Item under review: `C[n+]1c(-c2ccc(/C=N/NC(=O)c3ccc(C(=O)N/N=C/c4ccc(-c5cn6ccccc6[n+]5C)cc4)cc3)cc2)cn2ccccc21` . Reported growth inhibition?
## Result 7

## Task Item under review: O=C1C(=C2CCCC2)CCC1CN1CCCCC1 (stereo not given) . Reported growth inhibition?
## Result -7

## Task Item under review: `CCCCCCC=C(C(=O)OCC)C(=O)OCC` . Reported growth inhibition?
## Result -1

## Task Item under review: CC(CN(C)C)C(=O)/C=C/c1ccc(Cl)c(Cl)c1 (stereo not given) . Reported growth inhibition?
## Result 4

## Task Item under review: O=C1CSC(c2ccccc2)N1c1ccc(-c2ccc(-n3c(-c4ccccc4)nc4ccccc4c3=O)cc2)cc1 (stereo not given) . Reported growth inhibition?
## Result 0

## Task Item under review: C=CC(C)(C)N1C(=O)C(C(C)=O)=C(O)C1Cc1c[nH]c2ccccc12 (stereo not given) . Reported growth inhibition?
## Result 0

## Task Item under review: CC(C)(C)OC(=O)NCCCCC(NC(=O)C(Cc1c[nH]c2ccccc12)NC(=O)OCC1c2ccccc2-c2ccccc21)C(=O)O (stereo not given) (Fmoc-Trp-Lys(Boc)-OH; configuration not given here) . Reported growth inhibition?
## Result -1

## Task Item under review: `C=CCNC1=C2C[C@@H](C)C[C@H](OC)[C@H](O)[C@@H](C)/C=C(\C)[C@H](OC(N)=O)[C@@H](OC)/C=C\C=C(/C)C(=O)NC(=CC1=O)C2=O` . Reported growth inhibition?
## Result -73

---
## Task Item under review: `Cc1nc2sc3c(c2c(=O)o1)CCCC3` . Reported growth inhibition?
## Result 2

* * *

- method: NCI Yeast Anticancer Drug Screen. Data for the sgs1 strain (AID 173);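 note: 0% = growth of vehicle-only control cultures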
- condition-context: S. cerevisiae sgs1 mutant, at 3.7 µM, hits give high values
Compounds without any hit were thinned out: in the full panel of roughly 79,000, 15% have a hit.
Kindly state growth inhibition for each of the entries shown.
Answers are plain numbers, in %.

## Task Item under review: `O=S(=O)(c1ccccc1)N1CN2CN(C1)CN(S(=O)(=O)c1ccccc1)C2` . Reported growth inhibition?
## Result -19

## Task Item under review: CCCCCCCCCCCCCCCCCCN(C)C(COC)COP(=O)([O-])OCC[N+](C)(C)C (stereo not drawn) . Reported growth inhibition?
## Result -64

## Task Item under review: `CC1CCN(CCC(=O)c2ccc([N+](=O)[O-])cc2)CC1` . Reported growth inhibition?
## Result 16

## Task Item under review: `NNc1ccccc1-c1nc2ccccc2[nH]1` . Reported growth inhibition?
## Result 1

## Task Item under review: COc1cc2c(cc1OC)[C@@H](Nc1ccc(C#N)cc1)C1COC(=O)[C@@H]1C2c1cc(OC)c(O)c(OC)c1 (stereo partly drawn) . Reported growth inhibition?
## Result -14

Would you mind giving growth inhibition for every compound in the list below?
1. CC(C)CCC[C@@H](C)[C@H]1CC[C@H]2[C@@H]3CC[C@H]4C[C@H](N)CC[C@]4(C)[C@H]3CC[C@]12C
2. Nc1ccc(S(=O)(=O)Nc2nc3c(c(=O)[nH]2)CCCC3)cc1

## Result
1. -22
2. 47

## Task Item under review: `CC(C)=CCc1c2c(c(O)c3c(=O)c(-c4ccc(O)c(O)c4)coc13)C=CC(C)(C)O2` . Reported growth inhibition?
## Result -36
